testedSystem: M3 (Homo sapiens)
Sequence (P20309 whole entry): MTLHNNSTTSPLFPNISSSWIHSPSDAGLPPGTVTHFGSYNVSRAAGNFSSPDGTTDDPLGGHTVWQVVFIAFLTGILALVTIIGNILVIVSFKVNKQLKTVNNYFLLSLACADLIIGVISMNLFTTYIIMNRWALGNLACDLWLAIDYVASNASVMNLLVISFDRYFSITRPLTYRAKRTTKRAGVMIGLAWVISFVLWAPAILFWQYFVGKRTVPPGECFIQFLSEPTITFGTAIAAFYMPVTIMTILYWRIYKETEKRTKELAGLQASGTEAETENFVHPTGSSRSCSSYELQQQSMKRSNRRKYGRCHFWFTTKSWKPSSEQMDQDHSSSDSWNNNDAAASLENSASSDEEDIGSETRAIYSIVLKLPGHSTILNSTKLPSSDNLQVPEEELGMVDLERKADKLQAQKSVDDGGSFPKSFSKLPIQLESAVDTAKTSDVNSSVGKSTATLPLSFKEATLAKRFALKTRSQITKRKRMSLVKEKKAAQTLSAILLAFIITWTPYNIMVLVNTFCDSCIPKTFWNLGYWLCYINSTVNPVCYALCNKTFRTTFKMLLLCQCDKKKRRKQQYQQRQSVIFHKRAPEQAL
assayName: PDSP radioligand binding, muscarinic receptor M3
pKi: −log10 of the molar value.
Exercise: state measured pKi for each of the compounds provided.

Example entries begin here.
compound="CCNC1(c2cccc(OC)c2)CCCCC1=O (racemic)" endpointresult="< 5.00"
compound=COc1cccc(C2(N3CCCCC3)CCCCC2)c1 endpointresult="< 5.00"

Field: next compound
Request: Entry "COc1ccc(C2(N3CCCCC3)CCCCC2)cc1" : reported pKi = ?
Response: < 5.00

====

testedSystem: MOR (Homo sapiens)
Sequence (P35372 whole entry): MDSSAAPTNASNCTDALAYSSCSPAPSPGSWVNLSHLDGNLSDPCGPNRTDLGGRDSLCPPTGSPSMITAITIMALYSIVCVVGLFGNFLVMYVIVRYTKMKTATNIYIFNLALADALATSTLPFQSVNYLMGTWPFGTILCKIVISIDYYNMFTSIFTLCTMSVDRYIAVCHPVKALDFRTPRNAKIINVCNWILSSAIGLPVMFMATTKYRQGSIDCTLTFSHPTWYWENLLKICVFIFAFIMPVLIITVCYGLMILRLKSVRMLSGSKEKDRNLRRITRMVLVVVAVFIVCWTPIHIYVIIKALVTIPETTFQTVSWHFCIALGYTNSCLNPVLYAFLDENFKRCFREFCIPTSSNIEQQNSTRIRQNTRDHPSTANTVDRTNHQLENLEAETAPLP
Consider the following molecules; for each one, report its Ki.

molecule=COc1cccc(C2(N3CCCCC3)CCCCC2)c1 testedsystem="MOR (Homo sapiens)" valuetype=Ki endpointresult="> 10 µM"
molecule="CCNC1(c2cccc(OC)c2)CCCCC1=O (racemic)" testedsystem="MOR (Homo sapiens)" valuetype=Ki endpointresult="> 10 µM"

Attention now turns to another entry.
Request: Returns the measured Ki for the input molecule. Input: "COc1ccc(C2(N3CCCCC3)CCCCC2)cc1"
Response: > 10 µM

src = paper PMC3602154
